- assay_system: tau (Homo sapiens)
- method_notes: MCE Phenols Library screening, tau biosensor cell seeding assay (AvZ)
- Format: cell-based
- assay_setup: Z score, replicate 2
property_name: Z Repl 2
Please state the value as a number alone, without comment.

compound: O=c1c2cc(O)c(O)cc2oc2c([C@@H]3O[C@H](CO)[C@@H](O)[C@H](O)[C@H]3O)c(O)cc(O)c12 [Isomangiferin]
Z Repl 2: 0.537
//
compound: O=c1cc(-c2ccc(O)cc2)oc2cc(O[C@@H]3O[C@H](CO)[C@@H](O)[C@H](O)[C@H]3O[C@@H]3OC[C@](O)(CO)[C@H]3O)cc(O)c12 [Apiin]
Z Repl 2: 0.234

Input: Answer with Z Repl 2 of O=C(/C=C/c1ccc(O)c(O)c1)O[C@@H](C(=O)O)[C@@H](O)C(=O)O [Caftaric acid] measured for tau (Homo sapiens).
Output: -0.61

Input: Answer with Z Repl 2 of O=c1c(O)c(-c2ccc(O)c(O)c2)oc2cc(O)ccc12 [Fisetin] measured for tau (Homo sapiens).
Output: -0.758

Input: Answer with Z Repl 2 of OCc1ccc(O[C@@H]2O[C@H](CO)[C@@H](O)[C@H](O)[C@H]2O)cc1 [Gastrodin] measured for tau (Homo sapiens).
Output: -0.621

Input: Answer with Z Repl 2 of Oc1ccc2[nH]ccc2c1 [5-Hydroxyindole] measured for tau (Homo sapiens).
Output: -0.549

Input: Answer with Z Repl 2 of O=Cc1c[nH]c2cccc(O)c12 [4-Hydroxy-1H-indole-3-carbaldehyde] measured for tau (Homo sapiens).
Output: -0.086

Input: Answer with Z Repl 2 of O=C1c2ccc(O)cc2OCC1c1ccc(O)cc1 (stereo not shown) [Dihydrodaidzein] measured for tau (Homo sapiens).
Output: -0.442

Input: Answer with Z Repl 2 of N[C@@H](Cc1ccc(O)c([N+](=O)[O-])c1)C(=O)O [3-Nitro-L-tyrosine] measured for tau (Homo sapiens).
Output: 1.418

###

- assay_system: tau (Homo sapiens, UniProt P10636)
- Sequence (P10636 623-695 limits assumed): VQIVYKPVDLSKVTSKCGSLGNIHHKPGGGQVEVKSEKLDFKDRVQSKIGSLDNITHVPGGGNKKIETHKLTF
- method_notes: MCE Phenols Library screening, tau biosensor cell seeding assay (AvZ)
- Type: cell-based
- assay_setup: average Z score of the two replicates, MCE Phenols Library screen
Rule: y for av Z not less than -0.5, n for anything less.

Input: Hi team, for Oc1cc(O)c2c(c1)O[C@H](c1ccc(O)c(O)c1)[C@@H](O)C2 [Catechin] , is the recorded av Z at or above -0.5?
Output: n

###

- assay_system: tau (Homo sapiens)
- method_notes: MCE Phenols Library screening, tau biosensor cell seeding assay (AvZ)
- Type: cell-based
- assay_setup: Z score, replicate 2
Rule: MET for Z Repl 2 not less than -0.5, NOT MET for anything less.

compound: O=C(O)[C@H]1O[C@@H](Oc2cc3oc(-c4ccc(O)cc4)cc(=O)c3c(O)c2O)[C@H](O)[C@@H](O)[C@@H]1O [Scutellarin]
assigned_label: NOT MET
//
compound: OC[C@H]1O[C@@H](Oc2cc(O)cc(/C=C/c3ccc(O)cc3)c2)[C@H](O)[C@@H](O)[C@@H]1O (mixture of isomers) [(E/Z)-Polydatin]
assigned_label: MET
//
compound: CCCOC(=O)c1ccc(O)cc1 [Propylparaben]
assigned_label: MET

Input: Hi team, for COc1c(O[C@@H]2O[C@H](C(=O)O)[C@@H](O)[C@H](O)[C@H]2O)cc2oc(-c3ccccc3)cc(=O)c2c1O [Oroxylin A-7-O-glucuronide] , is the recorded Z Repl 2 at or above -0.5?
Output: MET

Input: Hi team, for O=c1c2c(O)cc(O)cc2oc2c(O)ccc(O[C@@H]3O[C@H](CO)[C@@H](O)[C@H](O)[C@H]3O)c12 [Norswertianolin] , is the recorded Z Repl 2 at or above -0.5?
Output: NOT MET

Input: Hi team, for Oc1cc(O)c2cc(O)c(-c3cc(O)c(O)c(O)c3)[o+]c2c1.[Cl-] [Delphinidin (chloride)] , is the recorded Z Repl 2 at or above -0.5?
Output: NOT MET

Input: Hi team, for COc1ccc(-c2coc3cc(O[C@@H]4O[C@H](CO)[C@@H](O)[C@H](O)[C@H]4O)c(OC)c(O)c3c2=O)cc1O [Iristectorin A] , is the recorded Z Repl 2 at or above -0.5?
Output: MET

###

- assay_system: tau (Homo sapiens, UniProt P10636)
- method_notes: MCE Phenols Library screening, tau biosensor cell seeding assay (AvZ)
- Format: cell-based
- assay_setup: average Z score of the two replicates, MCE Phenols Library screen
Catalogue of compounds with associated av Z
Please state the value as a number alone, without comment.

compound: CC(C)=CCc1c(-c2ccc(O)cc2O)oc2c3c(cc(O)c2c1=O)OC(C)(C)C=C3 [Morusin]
av Z: -0.454
--
compound: O=C(O)c1cc(O)c2c(c1)[C@H]([C@H]1c3cc(C(=O)O)cc(O)c3C(=O)c3c(O[C@@H]4O[C@H](CO)[C@@H](O)[C@H](O)[C@H]4O)cccc31)c1cccc(O[C@@H]3O[C@H](CO)[C@@H](O)[C@H](O)[C@H]3O)c1C2=O [Sennoside A]
av Z: -0.922
--
compound: COc1cc(/C=C/c2ccc(O)cc2)cc(OC)c1 [Pterostilbene]
av Z: -0.636
--
compound: COc1cc(O)c2c(c1)oc(=O)c1c3cc(O)c(O)cc3oc21 [Wedelolactone]
av Z: -0.994
--
compound: CC(C)=CCc1cc2c(cc1O)O[C@H](c1ccc(O)cc1)CC2=O [Bavachin]
av Z: -0.555
--
compound: Cc1cc2c(C(C)C)c(O)c(O)c(C=O)c2c(O)c1-c1c(C)cc2c(C(C)C)c(O)c(O)c(C=O)c2c1O [Gossypol]
av Z: -1.389
--
compound: O=C(CCc1ccc(O)cc1)c1c(O)cc(O)cc1O [Phloretin]
av Z: -0.667
--
compound: COc1cccc(OC)c1C(=O)OCc1cc(O)ccc1O[C@@H]1O[C@H](CO)[C@@H](O)[C@H](O)[C@H]1O [Curculigoside]
av Z: -0.318
--
compound: O=C(O[C@@H]1[C@@H](O)[C@H](Oc2cc(O)c(C(=O)CCc3ccccc3)c(O)c2)O[C@@H]2COC(=O)c3cc(O)c(O)c(O)c3-c3c(cc(O)c(O)c3O)C(=O)O[C@@H]12)c1cc(O)c(O)c(O)c1 [Thonningianin A]
av Z: -0.939
--
compound: OC[C@]1(O)COc2cc(O)ccc2-c2cc(O)c(O)cc2C1 [Protosappanin B]
av Z: -0.415

Input: Answer with the recorded av Z for the compound listed here: O=c1c2c(O)cc(O)cc2oc2c(O)ccc(O[C@@H]3O[C@H](CO)[C@@H](O)[C@H](O)[C@H]3O)c12 [Norswertianolin]
Output: -0.441

Input: Answer with the recorded av Z for the compound listed here: O=C(OC[C@H]1O[C@@H](OC(=O)c2cc(O)c(O)c(OC(=O)c3cc(O)c(O)c(O)c3)c2)[C@H](OC(=O)c2cc(O)c(O)c(OC(=O)c3cc(O)c(O)c(O)c3)c2)[C@@H](OC(=O)c2cc(O)c(O)c(OC(=O)c3cc(O)c(O)c(O)c3)c2)[C@@H]1OC(=O)c1cc(O)c(O)c(OC(=O)c2cc(O)c(O)c(O)c2)c1)c1cc(O)c(O)c(OC(=O)c2cc(O)c(O)c(O)c2)c1 [Tannic acid]
Output: -1.623

Input: Answer with the recorded av Z for the compound listed here: O=C(/C=C/c1ccc(O)cc1)c1c(O)cc(O)cc1O [Naringenin chalcone]
Output: -0.838

Input: Answer with the recorded av Z for the compound listed here: O=C1c2c(O)cccc2C([C@@H]2O[C@H](CO)[C@@H](O)[C@H](O)[C@H]2O)c2cc(CO)cc(O)c21 (some centres unmarked) [Aloin(mixture of A&B)]
Output: -0.334

Input: Answer with the recorded av Z for the compound listed here: OCc1ccc(O[C@@H]2O[C@H](CO)[C@@H](O)[C@H](O)[C@H]2O)cc1 [Gastrodin]
Output: -0.836

Input: Answer with the recorded av Z for the compound listed here: O=C1C[C@@H](c2ccc(O)cc2)Oc2cc(O[C@@H]3O[C@H](CO)[C@@H](O)[C@H](O)[C@H]3O)ccc21 [Neoliquiritin]
Output: -0.455

###

- assay_system: tau (Homo sapiens)
- method_notes: MCE Phenols Library screening, tau biosensor cell seeding assay (AvZ)
- Type: cell-based
- assay_setup: puncta, replicate 1
Catalogue of molecules with associated raw data 1
Please state the value as a number alone, without comment.

Illustrative cases are given below, each with its answer.
molecule: COc1ccc(O)cc1 [Mequinol]
raw data 1: 32350
//
molecule: O=C(CCCCCCCCc1ccc(O)c(O)c1)c1c(O)cccc1O [Malabaricone C]
raw data 1: 23659

Now examine the next entry.
Input: Answer with the recorded raw data 1 for the molecule listed here: O=c1cc(-c2ccc(O)cc2)oc2cccc(O)c12 [4',5-Dihydroxyflavone]
Output: 31664.4

###

Catalogue of compounds with associated av Z
- assay_system: tau (Homo sapiens)
- method_notes: MCE Phenols Library screening, tau biosensor cell seeding assay (AvZ)
- Format: cell-based
- assay_setup: average Z score of the two replicates, MCE Phenols Library screen
Please state the value as a number alone, without comment.

compound: O=c1c(O[C@@H]2O[C@H](CO)[C@@H](O)[C@H](O)[C@H]2O)c(-c2ccc(O)c(O)c2)oc2cc(O)cc(O)c12 [Isoquercetin]
av Z: -0.335
//
compound: COc1ccc2c(c1OC)O[C@H]1c3ccc(O)cc3OC[C@@H]21 [Methylnissolin]
av Z: -0.63
//
compound: O=c1ccoc2cc(O)cc(O)c12 [5,7-Dihydroxychromone]
av Z: -0.746
//
compound: Oc1cc(O)c2cc(O)c(-c3ccc(O)c(O)c3)[o+]c2c1.[Cl-] [Cyanidin (Chloride)]
av Z: -1.419
//
compound: C[C@H]1O[C@@H](O[C@H]2[C@H](Oc3c(-c4ccc(O)cc4)oc4cc(O)cc(O)c4c3=O)O[C@@H](CO)[C@H](O)[C@H]2O)[C@H](O)[C@@H](O)[C@@H]1O [Kaempferol-3-O-glucorhamnoside]
av Z: -0.801

Input: Answer with the recorded av Z for the compound listed here: O=C1O[C@H]2[C@@H]3OC(=O)c4cc(O)c(O)c(O)c4-c4c(cc(O)c(O)c4O)C(=O)OC[C@H]2O[C@@H](OC(=O)c2cc(O)c(O)c(O)c2)[C@@H]3OC(=O)c2cc(O)c(O)c3c2[C@@H]2C1=CC(=O)[C@](O)(O3)C2(O)O [Geraniin]
Output: -1.653

Input: Answer with the recorded av Z for the compound listed here: COc1ccc(-c2oc3cc(O)cc(O)c3c(=O)c2O)cc1O [Tamarixetin]
Output: -0.495
